Below, each entry is listed with its recorded T/C.
Tested on: BDF1 mice, B16 melanoma ip, median survival T/C
Experiment: NCI In Vivo Anticancer Drug Screen. Data for tumor model B16 Melanoma (intraperitoneal) in B6D2F1 (BDF1) mice
Settings: endpoint: median survival time; dose: 25.0 mg/kg/injection; schedule: Q04DX003 (ip); vehicle: Klucel (hydroxypropylcellulose) (HPC); higher = longer survival
Description: The antitumor activity of compounds was measured in mice bearing transplantable tumors. Survival or tumor size were measured and the results are expressed as the measurement made in the treated group (T) divided by the measurement made in the vehicle treated control group (C). The tumor model used in this assay is B16 Melanoma (intraperitoneal) in B6D2F1 (BDF1) mice
Inconclusive results and toxic doses are left out.

Exam item: # input compound: N#Cc1nc2ccccc2nc1C#N ; wanted: its T/C
Marked response: 102 % of control
